Please go through the items and note down their normalized RNA/DNA level with ligand (log10).
B1: library; a variant is named by its letters at N, in order (parent)
chain: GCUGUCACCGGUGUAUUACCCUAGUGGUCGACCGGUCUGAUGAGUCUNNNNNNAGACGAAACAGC

variants of: B1; assay: normalized RNA/DNA level with ligand (relative to sTRSVctl = 100) (log10 (% of sTRSVctl)); ligand: hypoxanthine (xanthine aptamer); higher = less ribozyme self-cleavage, higher mRNA level; conditions: ligand concentration (+) RNA-Seq: 5 mM, HEK293T, reporter: mCherry (pCS4076), ligand present: yes
The response must contain the number and no unit.

For GAAGCG the variant record lists normalized RNA/DNA level with ligand (log10) as 1.86

For GGGAGA the variant record lists normalized RNA/DNA level with ligand (log10) as 1.84

For ACUGGC the variant record lists normalized RNA/DNA level with ligand (log10) as 1.96

For GUUAUC the variant record lists normalized RNA/DNA level with ligand (log10) as 1.96

For CUGAGG the variant record lists normalized RNA/DNA level with ligand (log10) as 1.91

For ACAUAC the variant record lists normalized RNA/DNA level with ligand (log10) as 1.94

For GAGGCG the variant record lists normalized RNA/DNA level with ligand (log10) as 1.95

For UUGUCG the variant record lists normalized RNA/DNA level with ligand (log10) as 1.99

For GACAUG the variant record lists normalized RNA/DNA level with ligand (log10) as 1.81

For AACUGA the variant record lists normalized RNA/DNA level with ligand (log10) as 1.94

For UGCGUG the variant record lists normalized RNA/DNA level with ligand (log10) as 1.88
